Biological target: Alpha-1D adrenergic receptor (Homo sapiens); note: in other assays of this panel Not Active means under 50% inhibition at 10 µM
Sequence (P25100 whole entry): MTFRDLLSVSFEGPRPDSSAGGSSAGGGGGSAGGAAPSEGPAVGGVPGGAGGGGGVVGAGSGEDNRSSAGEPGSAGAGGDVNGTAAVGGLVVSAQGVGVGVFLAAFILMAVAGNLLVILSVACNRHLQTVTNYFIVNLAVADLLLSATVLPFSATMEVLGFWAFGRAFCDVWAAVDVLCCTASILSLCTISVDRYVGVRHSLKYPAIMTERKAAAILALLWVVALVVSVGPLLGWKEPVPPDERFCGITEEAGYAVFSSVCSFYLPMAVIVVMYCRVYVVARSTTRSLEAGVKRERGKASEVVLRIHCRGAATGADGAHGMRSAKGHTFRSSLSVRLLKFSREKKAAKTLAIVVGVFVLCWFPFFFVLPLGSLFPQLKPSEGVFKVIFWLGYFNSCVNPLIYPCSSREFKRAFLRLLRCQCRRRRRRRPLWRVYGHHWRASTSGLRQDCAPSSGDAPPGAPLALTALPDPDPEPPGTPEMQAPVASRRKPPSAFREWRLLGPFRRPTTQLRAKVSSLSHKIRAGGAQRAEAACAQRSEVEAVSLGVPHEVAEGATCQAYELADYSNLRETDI
Format: cell membranes, HEK293, Membrane
Details: hek293
RESULT_TYPE: IC50

compound="C=C1CC[C@H](O)C/C1=C/C=C1\\CCC[C@]2(C)[C@@H]([C@H](C)/C=C/[C@H](C)C(C)C)CC[C@@H]12 [ERGOCALCIFEROL]" recorded_measurement="Not Active"
compound="CC[N+](CC)(CC)CCOc1cccc(OCC[N+](CC)(CC)CC)c1OCC[N+](CC)(CC)CC.[I-].[I-].[I-] [GALLAMINE TRIETHIODIDE]" recorded_measurement="Not Active"
compound="CN[C@H](CC(C)C)C(=O)N[C@H]1C(=O)N[C@@H](CC(N)=O)C(=O)N[C@H]2C(=O)N[C@H]3C(=O)N[C@H](C(=O)N[C@H](C(=O)O)c4cc(O)cc(O)c4-c4cc3ccc4O)[C@H](O)c3ccc(c(Cl)c3)Oc3cc2cc(c3O[C@@H]2O[C@H](CO)[C@@H](O)[C@H](O)[C@H]2O[C@H]2C[C@](C)(N)[C@H](O)[C@H](C)O2)Oc2ccc(cc2Cl)[C@H]1O [VANCOMYCIN]" recorded_measurement="Not Active"
